biological target: P70S6K (Homo sapiens, UniProt P23443, T412E); construct: purchased Millipore; experiment: P70S6K enzyme assay; assay type: biochemical; conditions: P70S6K T412E mutant 3 nM, 24 μM ATP, FITC-AHA-AKRRRLSSLRA-OH substrate, 90 min at 25° C.; read-out: IC50p70S6K
Sequence (P23443 whole entry T412E): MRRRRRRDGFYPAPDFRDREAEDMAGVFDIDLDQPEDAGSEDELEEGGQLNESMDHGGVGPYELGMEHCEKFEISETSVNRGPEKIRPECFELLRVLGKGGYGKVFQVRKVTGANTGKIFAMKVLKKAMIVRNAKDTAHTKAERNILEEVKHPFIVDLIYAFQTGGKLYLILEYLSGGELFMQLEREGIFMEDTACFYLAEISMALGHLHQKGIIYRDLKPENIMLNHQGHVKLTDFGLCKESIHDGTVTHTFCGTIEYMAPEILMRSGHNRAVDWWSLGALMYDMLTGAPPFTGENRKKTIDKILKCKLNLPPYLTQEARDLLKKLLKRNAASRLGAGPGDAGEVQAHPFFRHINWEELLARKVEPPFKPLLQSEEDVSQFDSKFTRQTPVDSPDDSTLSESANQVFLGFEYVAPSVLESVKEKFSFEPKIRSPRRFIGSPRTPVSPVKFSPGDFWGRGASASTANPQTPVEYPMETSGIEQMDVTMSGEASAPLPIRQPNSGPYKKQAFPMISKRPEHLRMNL
pIC50: −log10 of the molar value.
Let's look at some compounds and their measured pIC50.

Compound: Cc1cc([C@@H]2CNC[C@H]2Nc2ncnc3c(C(N)=O)cccc23)ccc1F
pIC50: 8.47
--
Compound: NC(=O)c1cccc2c(N[C@@H]3CNCC[C@H]3c3cc(F)cc(C(F)(F)F)c3)ncnc12 (racemic)
pIC50: 8.51
--
Compound: NC(=O)c1cccc2c(N[C@H]3CNC[C@@H]3c3cccc(Br)c3)ncnc12 (racemic)
pIC50: 8.74
--
Compound: NC(=O)c1cccc2c(N[C@@H]3CNCC[C@H]3c3cccc(C(F)(F)F)c3)ncnc12 (racemic) [compound 30]
pIC50: 8.68
--
Compound: COc1cccc(C2CNCC2Nc2ncnc3c(C(N)=O)cccc23)c1 (centres unmarked)
pIC50: 8.59
--
Compound: NC(=O)c1cccc2c(N[C@H]3CNC[C@@H]3c3cc(F)cc(C(F)(F)F)c3)ncnc12 (racemic) [compound 45]
pIC50: 8.72
--
Compound: N#Cc1cccc([C@H]2CNC[C@@H]2Nc2ncnc3c(C(N)=O)cccc23)c1
pIC50: 7.09
--
Compound: N#Cc1cccc([C@@H]2CNC[C@H]2Nc2ncnc3c(C(N)=O)cccc23)c1
pIC50: 8.62

---

target: P70S6K (Homo sapiens, UniProt P23443, T412E); assay: P70S6K enzyme assay; conditions: P70S6K T412E mutant 3 nM, 24 μM ATP, FITC-AHA-AKRRRLSSLRA-OH substrate, 90 min at 25° C.; read-out: IC50p70S6K
pIC50: −log10 of the molar value.
Observed Property: pIC50

Compound: Cc1nc(N[C@H]2CNC[C@@H]2c2ccc(Cl)c(F)c2)c2cccc(C(N)=O)c2n1 (racemic)
Measured: 8.74

Compound: NC(=O)c1cccc2c(N[C@@H]3CNC[C@H]3c3ccc4ncccc4c3)ncnc12
Measured: 7.21

Compound: COc1ccc([C@@H]2CNC[C@H]2Nc2ncnc3c(C(N)=O)cccc23)cc1
Measured: 8.39

Compound: Cc1c(F)cccc1[C@@H]1CNC[C@H]1Nc1ncnc2c(C(N)=O)cccc12
Measured: 7.28

Compound: Cc1ccc(C2CCN(C(=O)OCc3ccccc3)CC2Nc2ncnc3c(C(N)=O)cccc23)cc1F (racemic)
Measured: 6.00

Compound: NC(=O)c1cccc2c(NC3CNCC3c3ccccc3F)ncnc12 (stereo not shown)
Measured: 8.46

Compound: NC(=O)c1cccc2c(N[C@H]3CNC[C@@H]3c3ccc(Cl)c(F)c3)ncnc12 [compound 112]
Measured: 6.48

Compound: CS(=O)(=O)c1ccc([C@H]2CNC[C@@H]2Nc2ncnc3c(C(N)=O)cccc23)cc1 (racemic)
Measured: 8.12

Compound: COc1ccc([C@H]2CNC[C@@H]2Nc2ncnc3c(C(N)=O)cccc23)cc1F (racemic) [compound 102]
Measured: 8.54

Compound: NC(=O)c1cccc2c(N[C@H]3CNC[C@@H]3c3ccc4ncccc4c3)ncnc12 [compound 70]
Measured: 8.48

Compound: CN1CC(Nc2ncnc3c(C(N)=O)cccc23)C(c2cccc(F)c2)C1 (racemic)
Measured: 7.64

Compound: CCc1nc(N[C@@H]2CNCC[C@H]2c2cccc(F)c2)c2cccc(C(N)=O)c2n1 (racemic)
Measured: 8.77

Compound: NC(=O)c1cccc2c(N[C@@H]3CNC[C@H]3c3cc(F)cc(C(F)(F)F)c3)ncnc12
Measured: 8.59

Compound: Cc1nc(N[C@@H]2CNCC[C@H]2c2ccccc2F)c2cccc(C(N)=O)c2n1 (racemic)
Measured: 6.68

Compound: Cc1cc([C@H]2CNC[C@@H]2Nc2ncnc3c(C(N)=O)cccc23)ccc1F (racemic) [compound 74]
Measured: 8.06

Compound: NC(=O)c1cccc2c(N[C@@H]3CNCC[C@H]3c3ccc(C(F)(F)F)cc3)ncnc12 (racemic) [compound 127]
Measured: 8.70
